Hi there, I'd appreciate the recorded DC50 for every entry that follows.
target: Nanoluciferase-BRD9 fusion protein (Homo sapiens (Human), UniProt Q9H8M2); test: SYO1 BRD9 NanoLuc degradation assay; type: cell-based; conditions: Table 5B; SYO-1 cells expressing 3×FLAG-NLuc-BRD9, 6 hours; read-out: SYO1 BRD9-NanoLuc degradation IC50
Sequence (Q9H8M2 whole entry, the tested form may be a part): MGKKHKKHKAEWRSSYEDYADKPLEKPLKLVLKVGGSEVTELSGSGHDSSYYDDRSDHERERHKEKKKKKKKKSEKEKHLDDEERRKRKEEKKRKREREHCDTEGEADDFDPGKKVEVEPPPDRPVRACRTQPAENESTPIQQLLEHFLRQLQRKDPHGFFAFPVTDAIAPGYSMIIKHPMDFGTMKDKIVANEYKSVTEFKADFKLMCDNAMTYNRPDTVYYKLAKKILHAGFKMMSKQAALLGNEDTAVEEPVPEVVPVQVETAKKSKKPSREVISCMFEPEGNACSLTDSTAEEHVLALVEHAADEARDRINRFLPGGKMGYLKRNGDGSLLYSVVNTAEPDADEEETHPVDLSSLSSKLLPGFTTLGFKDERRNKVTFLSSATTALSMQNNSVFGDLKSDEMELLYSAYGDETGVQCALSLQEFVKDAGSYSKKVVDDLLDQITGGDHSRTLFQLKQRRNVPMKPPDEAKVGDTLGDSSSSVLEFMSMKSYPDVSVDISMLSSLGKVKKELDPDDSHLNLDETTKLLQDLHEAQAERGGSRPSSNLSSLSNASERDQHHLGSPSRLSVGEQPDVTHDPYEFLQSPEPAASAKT

query: # query: DC50 of entry COc1cc(-c2cc(C)c(F)c3ccccc23)cc(OC)c1CN1CCC(CN2CCC3(CC2)CC(Oc2ccc4c(c2)C(=O)N(C2CCC(=O)NC2=O)C4=O)C3)CC1 (centres unmarked) [DD10]
result: 100 to 1000 nM

query: Item: COc1cc(-c2cn(C)c(=O)c3cnccc23)cc(OC)c1CN1CCC2(CC1)CN(C(=O)CCC#Cc1ccc3c(c1)C(=O)N(C1CCC(=O)NC1=O)C3=O)C2 (centres unmarked) [Compound D217]
result: < 10 nM

query: Item: COc1cc(-c2cn(C)c(=O)c3cnccc23)cc(OC)c1CN(C)CC(=O)NCCCCOc1ccc(-c2ccc3c(c2)C(=O)C(C2CCC(=O)NC2=O)C3=O)cc1 (centres unmarked) [DD7]
result: < 10 nM

query: Item: COc1cc(-c2cn(C)c(=O)c3cnccc23)cc(OC)c1CN(C)C(=O)CCCCN1CCC2C1CN2c1ccc2c(c1)C(=O)N(C1CCC(=O)NC1=O)C2=O (centres unmarked) [Compound D205]
result: < 10 nM

query: Item: COc1cc(-c2cn(C)c(=O)c3cnccc23)cc(OC)c1CN1CC(CC(=O)N2CCC3(C2)CN(c2ccc4c(c2)C(=O)N(C2CCC(=O)NC2=O)C4=O)C3)C1 (centres unmarked) [Compound D193]
result: 100 to 1000 nM

query: Item: COc1cc(-c2cn(C)c(=O)c3cnn(C)c23)cc(OC)c1CN1CC(CN2CCC3(CC2)CN(c2ccc4c(c2)CN(C2CCC(=O)NC2=O)C4=O)C3)C1 (centres unmarked) [Compound D369]
result: < 10 nM

query: Item: COc1cc(-c2cn(C)c(=O)c3cnccc23)cc(OC)c1CN(C)CCCCN1CCC2(CCN(c3ccc4c(c3)C(=O)N(C3CCC(=O)NC3=O)C4=O)C2)C1 (centres unmarked) [Compound D225]
result: < 10 nM

query: Item: COc1cc(-c2cn(C)c(=O)c3cnccc23)cc(OC)c1CN(C)C1CCN(CCOc2ccc3c(c2)C(=O)N(C2CCC(=O)NC2=O)C3=O)CC1 (centres unmarked) [Compound D178]
result: < 10 nM

query: Item: COc1cc(-c2cn(C)c(=O)c3cnccc23)cc(OC)c1CN(C)CCCCN1CC(Oc2ccc3c(c2)C(=O)N(C2CCC(=O)NC2=O)C3=O)C1 (centres unmarked) [Compound D249]
result: 10 to 100 nM

query: Item: COc1cc(-c2cn(C)c(=O)c3cnccc23)cc(OC)c1CN(C)CCCCN1CCC2C1CN2c1ccc2c(c1)C(=O)N(C1CCC(=O)NC1=O)C2=O (centres unmarked) [Compound D227]
result: < 10 nM

query: Item: COc1cc(-c2cn(C)c(=O)c3cnccc23)cc(OC)c1CN1CCC2(C1)CN(CCCC#Cc1ccc3c(c1)C(=O)N(C1CCC(=O)NC1=O)C3=O)C2 (centres unmarked) [Compound D238]
result: < 10 nM
